Task for the reader: assign each of the following molecules its reported log10 of Ki.
Molecular target: Histamine H3 receptor (Cavia porcellus)
Sequence (Q9JI35 whole entry): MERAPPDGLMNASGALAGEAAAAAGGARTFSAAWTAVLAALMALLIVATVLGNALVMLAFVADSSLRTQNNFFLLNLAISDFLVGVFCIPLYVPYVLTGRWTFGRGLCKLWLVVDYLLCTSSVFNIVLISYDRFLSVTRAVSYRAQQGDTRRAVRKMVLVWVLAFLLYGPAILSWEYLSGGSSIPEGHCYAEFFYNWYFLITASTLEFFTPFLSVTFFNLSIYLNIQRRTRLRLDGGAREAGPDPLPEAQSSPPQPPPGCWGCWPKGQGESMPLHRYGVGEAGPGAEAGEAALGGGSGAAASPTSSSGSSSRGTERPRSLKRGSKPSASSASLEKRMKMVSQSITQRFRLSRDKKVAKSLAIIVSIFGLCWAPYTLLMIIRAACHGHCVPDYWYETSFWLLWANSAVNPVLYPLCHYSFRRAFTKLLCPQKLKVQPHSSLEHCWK
Annotation: log10 of Ki, nM basis.

The examples below pair each entry with its known result.
O=S(=O)(NCCCCCc1c[nH]cn1)c1ccccc1    1.39
Cc1ccc(S(=O)(=O)NCCCCc2cnc[nH]2)cc1    1.23
Nc1ccc(S(=O)(=O)NCCCCc2c[nH]cn2)cc1    2.00
O=S(=O)(NCCCCc1cnc[nH]1)c1cccs1    1.65

Each molecule below has a recorded value; state its log10 of Ki.
1. O=[N+]([O-])c1ccc(S(=O)(=O)NCCCc2c[nH]cn2)cc1
2. CN(CCCCc1c[nH]cn1)S(=O)(=O)c1ccc(Cl)cc1

1. 1.97
2. 0.60

Where do the numbers come from? From ChEMBL document CHEMBL1130926.
